Listing of recorded viability by entry.
assay_remarks: reversal of MRP1-mediated doxorubicin resistance, pilot screen, H69AR cells, doxorubicin co-treatment (AID 601)
experimental_context: H69AR cells + 2 uM doxorubicin, CellTiter-Glo, 72 h; measured here: viability with 2 uM doxorubicin; at 10 µM; stronger effect = lower value
Peptide text beside a SMILES is read from it. * marks the point of attachment. Boc = CC(C)(C)OC(=O)*
observation_type: viability (%)

[[record]]
molecule = "CCCN(CCC)S(=O)(=O)c1ccc(C(=O)O)cc1"
observation_type = "viability"
unit_symbol = "%"
observed_measurement = 87.1

[[record]]
molecule = "O=c1c2cc3ccccc3n2cnn1Cc1ccccc1F"
observation_type = "viability"
unit_symbol = "%"
observed_measurement = 47.4

[[record]]
molecule = "Cc1cccc(NC(=O)C2CCCN2C(=O)OCC(C)C)c1C (stereo not drawn)"
observation_type = "viability"
unit_symbol = "%"
observed_measurement = 83.5

[[record]]
molecule = "CCOC(=O)c1c(-c2ccc(C)o2)csc1NC(=O)CN1CCN(CC)CC1"
observation_type = "viability"
unit_symbol = "%"
observed_measurement = 86.7

[[record]]
molecule = "O=C(COC(=O)c1cc(S(=O)(=O)N2CCOCC2)ccc1O)NCC1CCCO1 (stereo not drawn)"
observation_type = "viability"
unit_symbol = "%"
observed_measurement = 94.5

[[record]]
molecule = "O=C(Nc1ccc(F)cc1)NC1CCN(Cc2nnnn2Cc2ccco2)CC1"
observation_type = "viability"
unit_symbol = "%"
observed_measurement = 88.5

[[record]]
molecule = "NS(=O)(=O)c1ccc(NC(=O)N[C@@H](Cc2ccccc2)C(=O)O)cc1"
observation_type = "viability"
unit_symbol = "%"
observed_measurement = 92.6

[[record]]
molecule = "CC(C)OC(=O)C1C2C=CC3(CN(Cc4cccs4)C(=O)C13)O2 (stereo not drawn)"
observation_type = "viability"
unit_symbol = "%"
observed_measurement = 93.8

[[record]]
molecule = "CCC(C)C(NC(=O)OC(C)(C)C)C(=O)NC(CC(C)C)C(N)=O (stereo not drawn) (Boc-Ile-Leu-NH2; configuration not given here)"
observation_type = "viability"
unit_symbol = "%"
observed_measurement = 89.1

[[record]]
molecule = "CCOC(=O)N1CCN(CC(=O)Nc2cc(C)nn2-c2nc3ccccc3s2)CC1"
observation_type = "viability"
unit_symbol = "%"
observed_measurement = 39.2

[[record]]
molecule = "CCCCc1ccc(NC(=O)COCC)cc1"
observation_type = "viability"
unit_symbol = "%"
observed_measurement = 85.9

[[record]]
molecule = "Nc1ccc(S(=O)(=O)Nc2ccccn2)cc1"
observation_type = "viability"
unit_symbol = "%"
observed_measurement = 81

[[record]]
molecule = "O=C(COn1nnc2ccc(C(F)(F)F)cc21)Nc1nnc(-c2ccccc2)o1"
observation_type = "viability"
unit_symbol = "%"
observed_measurement = 82.3

[[record]]
molecule = "CCCc1ccc(C(C)NC(=O)c2cnccn2)cc1 (stereo not drawn)"
observation_type = "viability"
unit_symbol = "%"
observed_measurement = 83.5

[[record]]
molecule = "Cc1cc(C)n(C(C)n2nc(C)cc2C)n1"
observation_type = "viability"
unit_symbol = "%"
observed_measurement = 78.8

[[record]]
molecule = "CN1CCc2c(sc3c2c(=O)n(-c2cccc(Cl)c2)c2nncn32)C1"
observation_type = "viability"
unit_symbol = "%"
observed_measurement = 109

[[record]]
molecule = "Cc1ccc(-n2ncc3c(=O)n(CC(=O)NCc4ccco4)cnc32)cc1"
observation_type = "viability"
unit_symbol = "%"
observed_measurement = 93.6

[[record]]
molecule = "O=C1C(Cl)=C(NCC2CCCO2)C(=O)N1CCc1ccccc1 (stereo not drawn)"
observation_type = "viability"
unit_symbol = "%"
observed_measurement = 79

[[record]]
molecule = "CCC(CCC(=O)Nc1cccc(C(=O)O)c1)C(=O)O (stereo not drawn)"
observation_type = "viability"
unit_symbol = "%"
observed_measurement = 101

[[record]]
molecule = "CCOc1ccc(OCc2cccc(C(=O)N3CCCC3)c2)cc1"
observation_type = "viability"
unit_symbol = "%"
observed_measurement = 86

[[record]]
molecule = "O=C(O)C1CCCCC1C(=O)Nc1ccccn1 (stereo not drawn)"
observation_type = "viability"
unit_symbol = "%"
observed_measurement = 99.4

[[record]]
molecule = "COc1cccc(NC(=O)N2CCC(N3CCCCC3)CC2)c1"
observation_type = "viability"
unit_symbol = "%"
observed_measurement = 97.1

[[record]]
molecule = "C=CCSc1n[nH]c(-c2ccc(OC)cc2)n1"
observation_type = "viability"
unit_symbol = "%"
observed_measurement = 87.9

